# Test system: HS 578T breast
# assayExplanation: NCI tumour cell line growth inhibition, 48 h; in the data active = GI50 below about 0.43 µM; inactive = the rest
Outcome field: choose from active, inactive

- molecule: "CC(C)CCC[C@@H](C)[C@H]1CC[C@H]2[C@@H]3CC=C4C[C@@H](C(C(=O)O)C(=O)O)CC[C@]4(C)[C@H]3CC[C@]12C"
  classLabel: "active"

stdin: State the result this test recorded for Cc1ccc(C(=O)/C(=C/c2ccc([N+](=O)[O-])cc2)SCc2ccc(Cl)cc2)cc1 .
stdout: inactive

stdin: GET /call?item= O=C(Nc1ccccc1)NS(=O)(=O)c1ccc(-n2nc3c(c2-c2cccs2)Cc2ccccc2-3)cc1 returns the recorded outcome of this test.
stdout: inactive

stdin: Dear colleague, could you share the recorded outcome for C#Cc1ccc(-n2c(/C=C/c3ccc(C(F)(F)F)cc3)nc3ncccc3c2=O)cc1 when you have a moment?
stdout: inactive

* * *

# System: NCI-H522 lung
# assayExplanation: NCI tumour cell line growth inhibition, 48 h
valueType: TGI (µM)
Write the value in µM as a bare number.

- molecule: "CCCN=C1CCN(Cc2ccccc2)c2ccccc2N1"
  TGI [µM]: 27.9
- molecule: "FC(F)(F)c1cc(Cl)cnc1N/N=C(/c1ccccc1)c1ccccn1"
  TGI [µM]: 8.31
- molecule: "CCC[C@@H](O)C[C@@H]1CCC[C@H](C[C@@H](O)CC)N1C"
  TGI [µM]: 30.7

stdin: Need TGI, item O=C1C=C(Cl)C(=O)C(c2ccc(Cl)cc2)=C1
stdout: 47.4

stdin: Item under review: NC(=O)c1cccc2cn(-c3ccc([C@@H]4CCCNC4)cc3)nc12 . Reported TGI?
stdout: 55.6

stdin: Using the record for COc1ccc(CNc2nc(NCc3ccc(OC)c(OC)c3)nc(NC3CCCCC3)n2)cc1 , report its TGI.
stdout: 5.74

* * *

# Tested on: NCI-H226 lung
# assayExplanation: NCI tumour cell line growth inhibition, 48 h
Item-by-item account of TGI

- compound: "CC1=C(C(=O)Nc2ccc(Cl)c(Cl)c2)C(c2cccc(Oc3ccccc3)c2)NC(=S)N1 (stereo unspecified)"
  subjectOfTest: "NCI-H226 lung"
  observedValue: "19.5 µM"
- compound: "CN1C(=O)C(C)(C)C2(SC(C)(C)C2(C)C)N(C)C1=S (stereo unspecified)"
  subjectOfTest: "NCI-H226 lung"
  observedValue: "> 100 µM"
- compound: "COc1cc2c(cc1OC)C(c1ccccc1CCCCl)=NCC2"
  subjectOfTest: "NCI-H226 lung"
  observedValue: "> 100 µM"
- compound: "Cc1cc(O)c2c(=O)c3ccccc3[nH]c2c1"
  subjectOfTest: "NCI-H226 lung"
  observedValue: "94.3 µM"
- compound: "CC[C@@]1(O)C(=O)OCc2c1cc1n(c2=O)Cc2c-1nc1ccccc1c2/C=N\\NC(=O)CN"
  subjectOfTest: "NCI-H226 lung"
  observedValue: "3.54 µM"

stdin: I have this compound here, COc1ccc2c(c1)/C(=C/c1c(C)nc3sc(C)nn13)C(=O)N2 , and I need its recorded TGI.
stdout: > 100 µM

stdin: Find the recorded TGI belonging to O=C(CCC(=O)c1ccc(Cl)cc1)NO and report it.
stdout: > 100 µM

stdin: Requested read-out: TGI. Entry: CCCN=C1CCN(Cc2ccccc2)c2ccccc2N1
stdout: 96.1 µM

stdin: Bench note: what TGI did CCOC(=O)N1CCC2(CC1)C[C@](C)(C(C)=O)C(C)O2 (stereo partly specified) show?
stdout: > 100 µM

stdin: Could you share which TGI value was measured for COc1ccc(N2C(=O)C3c4[nH]c5ccccc5c4C4CCC(C(C)(C)C)CC4C3C2=O)c(C)c1 (stereo unspecified) ?
stdout: > 100 µM

stdin: // lookup TGI for CNS(=O)(=O)NNS(=O)(=O)c1ccc2ccccc2c1
stdout: > 100 µM

* * *

# Tested on: A498 renal
# assayExplanation: NCI tumour cell line growth inhibition, 48 h
Listed here are compounds together with their documented TGI.
Number in µM, nothing else.

Known TGI results, listed for orientation:
- smilesNotation: "C=C(C1=CC(=O)C(C)(C)O1)[C@@H]1CC=C([C@@H]2CC[C@H]3[C@@]2(C)CC[C@H]2C(C)(C)C(=O)[C@H](O)C[C@]32C)[C@H](O)O1"
  subjectOfTest: "A498 renal"
  unitAbbrev: "µM"
  observedValue: 9.89
- smilesNotation: "CC(=O)NNc1nc(C)c(C(=O)NNC(=O)C(=O)Nc2c(Cl)cc([N+](=O)[O-])cc2Cl)s1"
  subjectOfTest: "A498 renal"
  unitAbbrev: "µM"
  observedValue: 66.3

In the following, a different compound is considered.
stdin: Recorded TGI of CCN(CC)CCC(=O)Nc1ccc2c(c1)C(=O)c1ccc(NC(=O)CCN(CC)CC)cc1C2=O , please.
stdout: 17.8

* * *

# Tested on: HCC-2998 colon
# assayExplanation: NCI tumour cell line growth inhibition, 48 h
valueType: TGI

Some solved cases for reference:
- compound: "COc1ccc2c(=O)c(O)c(-c3ccc(OC)c(OC)c3)oc2c1"
  valueType: "TGI"
  observedValue: "> 100 µM"
- compound: "COc1ccc(/C=C2\\CCC(C)C3=C2NC(=S)NC3c2ccc(OC)c(OC)c2)cc1OC (configuration not stated)"
  valueType: "TGI"
  observedValue: "> 100 µM"
- compound: "O=C1C=C(Cl)C(=O)C(c2ccc(Cl)cc2)=C1"
  valueType: "TGI"
  observedValue: "34.2 µM"
- compound: "O=S1(=O)NC(=NCc2c[nH]c3ccccc23)N(c2ccccc2)c2ccncc21"
  valueType: "TGI"
  observedValue: "> 100 µM"
- compound: "c1ccc(N=C2SC3=Nc4cccc5cccc(c45)N3C2=Nc2ccccc2)cc1"
  valueType: "TGI"
  observedValue: "> 100 µM"

stdin: Requested field: TGI. Item: C#Cc1ccc(-n2c(/C=C/c3ccc(C(F)(F)F)cc3)nc3ncccc3c2=O)cc1
stdout: 3.47 µM

stdin: Fill in: TGI of N#CN=C(N(Cc1ccccc1)Cc1ccccc1)N(Cc1ccccc1)Cc1ccccc1 is ___
stdout: > 100 µM

* * *

# System: CCRF-CEM leukemia
# assayExplanation: NCI tumour cell line growth inhibition, 48 h; in the data active means GI50 below about 0.43 µM; inactive means the rest
Choose one outcome from this list and give only that: active, inactive

- smilesNotation: "COc1ccc2c(c1)/C(=C/c1c(C)nc3sc(C)nn13)C(=O)N2"
  subjectOfTest: "CCRF-CEM leukemia"
  classLabel: "inactive"
- smilesNotation: "Cn1cc(C2=C(c3cn(C)c4ncccc34)C(=O)NC2=O)c2ccccc21"
  subjectOfTest: "CCRF-CEM leukemia"
  classLabel: "inactive"

stdin: Per the records of this test, what outcome belongs to Cc1nc2ccccc2c(N)c1-c1cc(C)c2c(C)nc3ccccc3c2n1 ?
stdout: active

stdin: Outcome logged for COC(=O)[C@@H]1[C@H](O)[C@H](C)[C@H](O)[C@@](C)(O)/C=C\C=C(C)C(=O)Nc2c(C)c(OC(C)=O)c3c(c2O)C(=O)C(C)=C2OCOC(=C23)C(C)=C[C@@](C)(O)[C@H](O)[C@@H](C)[C@H]1OC(C)=O in this assay:
stdout: inactive

stdin: Please indicate how the test categorized CC1(C)CCc2c(c3c(c4c(=O)c(O)c(-c5ccc(O)cc5)oc24)OC(C)(C)CC3)O1 .
stdout: inactive

stdin: Recorded test call requested for O=C1C(Cl)=C(Nc2cccc(Cl)c2)C(=O)N1Cc1ccc(Cl)cc1Cl
stdout: inactive

* * *

# Test system: NCI/ADR-RES ovarian
# assayExplanation: NCI tumour cell line growth inhibition, 48 h
TGI for assorted molecules

Solved entries (count: 6):
- molecule: "Cc1nc(C(N)=S)sc1/C(CC(=O)C(=O)Nc1cccc2ccc(O)cc12)=N\\NC(=O)c1ccncc1"
  TGI: "> 100 µM"
- molecule: "CC1=C(C(=O)Nc2ccc(Cl)c(Cl)c2)C(c2cccc(Oc3ccccc3)c2)NC(=S)N1 (centres undefined)"
  TGI: "17.4 µM"
- molecule: "COc1ccc(C(=O)Cn2c(C(=O)c3ccccc3)nc(-c3ccc(OC)cc3)c2-c2ccc(OC)cc2)cc1"
  TGI: "> 100 µM"
- molecule: "C[C@@]12C[C@@H](c3ccccc3O1)N1CCCCSC1=N2"
  TGI: "> 100 µM"
- molecule: "c1ccc2cc(-c3cc(-c4cc(-c5ccc6ccccc6c5)on4)no3)ccc2c1"
  TGI: "> 100 µM"
- molecule: "Clc1ccc2c(NCCCCNc3nc(N4CCCCC4)nc4ccccc34)ccnc2c1"
  TGI: "9.18 µM"

stdin: Field request: TGI | item: C=C1c2nc3ccccc3n2C=C(c2ccccc2)N1c1ccc([N+](=O)[O-])cc1
stdout: 44.5 µM

stdin: Could you tell me which TGI is on file for Nc1cccc2cc(Cl)cnc12 ?
stdout: > 100 µM

stdin: What measured TGI goes with COc1cc2c(cc1OC)C(c1ccccc1CCCCl)=NCC2 ?
stdout: > 100 µM

stdin: Given the molecule CCC[C@@H](O)C[C@@H]1CCC[C@H](C[C@@H](O)CC)N1C , what is its reported TGI?
stdout: > 100 µM

stdin: May I ask what TGI has been recorded for COc1cc([C@@H]2c3cc4c(cc3[C@@H](Nc3ccc([N+](=O)[O-])cc3C(=O)c3ccccc3)[C@H]3COC(=O)[C@H]23)OCO4)cc(OC)c1OC ?
stdout: > 100 µM

stdin: Returns the measured TGI for the input molecule. Input: Cc1cc(I)cc(CN(C)CCCCN2CCCCC2)c1O
stdout: 73.2 µM

stdin: What measured TGI goes with NNC(=O)Nc1cccnc1 ?
stdout: > 100 µM

stdin: So what's the measured TGI for this one? O=C(O)c1cccc2c1/C(=N/Nc1ccccc1)CC2
stdout: > 100 µM

stdin: # TGI lookup, item Cc1nc2ccccc2c(N)c1-c1cc(C)c2c(C)nc3ccccc3c2n1
stdout: 3.15 µM

stdin: Data request, read-out TGI, for COc1ccc2c(C3=C(c4cn(C)c5ccccc45)C(=O)NC3=O)cn(C)c2c1
stdout: > 25 µM

stdin: What does the data say about its TGI? Entry: CCC(CO)Nc1nc2ccc(Cl)cc2c2ccccc12 (centres undefined)
stdout: 21.4 µM

stdin: Consider the molecule shown here: CCOC(=O)C(NC(C)=O)(Nc1ccc(F)cc1)C(F)(F)F (centres undefined) What is its recorded TGI?
stdout: > 100 µM

stdin: # TGI lookup, item c1ccc(N=C2SC3=Nc4cccc5cccc(c45)N3C2=Nc2ccccc2)cc1
stdout: > 100 µM
